Where do these numbers come from? They come from patent US20240158370A1.

Biological target: CK1α (Homo sapiens, UniProt P48729+Q96SW2)
Construct: CSNK1A1-HiBit KI HEK293(LgBit) Cells; host or cells: HEK293(LgBit) knock-in cells
Sequence (P48729 whole entry): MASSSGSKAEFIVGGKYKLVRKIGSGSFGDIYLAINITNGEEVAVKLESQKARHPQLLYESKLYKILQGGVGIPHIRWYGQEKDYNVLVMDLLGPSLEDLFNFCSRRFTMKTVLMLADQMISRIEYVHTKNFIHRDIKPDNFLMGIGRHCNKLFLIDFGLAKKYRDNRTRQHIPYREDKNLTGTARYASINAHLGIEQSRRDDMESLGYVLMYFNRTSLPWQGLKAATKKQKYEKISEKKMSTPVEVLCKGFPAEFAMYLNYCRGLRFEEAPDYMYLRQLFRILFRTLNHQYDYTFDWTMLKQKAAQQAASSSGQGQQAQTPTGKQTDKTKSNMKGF
Sequence (Q96SW2 whole entry): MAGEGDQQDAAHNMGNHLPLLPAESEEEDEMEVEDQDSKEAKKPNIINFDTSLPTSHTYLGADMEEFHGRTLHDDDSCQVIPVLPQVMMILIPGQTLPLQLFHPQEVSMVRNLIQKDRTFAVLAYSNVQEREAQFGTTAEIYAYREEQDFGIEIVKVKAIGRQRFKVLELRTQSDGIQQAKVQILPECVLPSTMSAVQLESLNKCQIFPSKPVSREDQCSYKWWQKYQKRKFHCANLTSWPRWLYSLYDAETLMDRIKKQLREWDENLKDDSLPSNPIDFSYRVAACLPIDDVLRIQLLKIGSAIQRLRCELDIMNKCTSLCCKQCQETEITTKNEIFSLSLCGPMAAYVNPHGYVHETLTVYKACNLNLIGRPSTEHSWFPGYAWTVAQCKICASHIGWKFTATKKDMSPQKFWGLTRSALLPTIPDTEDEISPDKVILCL
Sequence (Q16531 whole entry partner): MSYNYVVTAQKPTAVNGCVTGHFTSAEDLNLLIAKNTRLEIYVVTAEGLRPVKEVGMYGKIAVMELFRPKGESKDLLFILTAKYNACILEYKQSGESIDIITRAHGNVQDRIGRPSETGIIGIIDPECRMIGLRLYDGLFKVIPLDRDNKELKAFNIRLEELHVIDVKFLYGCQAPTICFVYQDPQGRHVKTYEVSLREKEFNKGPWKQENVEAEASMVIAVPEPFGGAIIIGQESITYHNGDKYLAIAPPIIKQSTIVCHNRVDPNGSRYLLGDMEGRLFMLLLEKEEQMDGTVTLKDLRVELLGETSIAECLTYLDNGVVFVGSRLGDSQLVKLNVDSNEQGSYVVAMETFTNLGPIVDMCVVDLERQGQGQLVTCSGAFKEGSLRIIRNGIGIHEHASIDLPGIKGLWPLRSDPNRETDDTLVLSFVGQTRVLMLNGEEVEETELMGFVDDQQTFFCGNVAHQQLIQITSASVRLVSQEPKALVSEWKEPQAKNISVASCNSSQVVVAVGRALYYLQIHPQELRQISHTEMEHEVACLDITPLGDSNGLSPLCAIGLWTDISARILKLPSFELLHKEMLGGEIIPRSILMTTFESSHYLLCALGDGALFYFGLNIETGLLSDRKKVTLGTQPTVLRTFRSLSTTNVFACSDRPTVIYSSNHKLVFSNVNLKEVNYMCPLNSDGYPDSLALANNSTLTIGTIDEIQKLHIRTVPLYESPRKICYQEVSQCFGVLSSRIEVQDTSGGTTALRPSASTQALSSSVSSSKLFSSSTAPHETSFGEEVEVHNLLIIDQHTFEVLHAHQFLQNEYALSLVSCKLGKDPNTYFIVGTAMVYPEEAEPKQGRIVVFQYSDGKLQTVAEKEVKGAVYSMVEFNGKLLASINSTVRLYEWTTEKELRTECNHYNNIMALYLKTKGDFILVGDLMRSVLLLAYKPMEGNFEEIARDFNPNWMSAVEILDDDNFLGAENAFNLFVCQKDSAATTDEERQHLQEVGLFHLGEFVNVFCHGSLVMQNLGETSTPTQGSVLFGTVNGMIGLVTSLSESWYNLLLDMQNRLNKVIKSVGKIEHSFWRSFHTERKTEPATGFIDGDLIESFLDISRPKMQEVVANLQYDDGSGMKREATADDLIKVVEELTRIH
Test: HiBiT degradation assay, CK1α, Procedure A
Assay type: cell-based
Conditions: six hours
readout.type: DC50

[[record]]
compound = "Cn1cnc(-c2ccc3c(c2)CN(C2CCC(=O)NC2=O)C3=O)c1-c1cc[nH]n1 (stereo not shown)"
readout_type = "DC50"
val = "≥ 25 nM"

[[record]]
compound = "Cn1cc(-c2ccc3c(c2)CN(C2CCC(=O)NC2=O)C3=O)nc1-c1ccc(F)c(F)c1 (stereo not shown)"
readout_type = "DC50"
val = "< 25 nM"

[[record]]
compound = "Cn1cc(-c2ccc3c(c2)CN(C2CCC(=O)NC2=O)C3=O)nc1-c1ccc(F)cc1 (stereo not shown)"
readout_type = "DC50"
val = "< 25 nM"

[[record]]
compound = "Cn1cnc(-c2ccc3c(c2)CN(C2CCC(=O)NC2=O)C3=O)c1C1CCOC1 (stereo not shown)"
readout_type = "DC50"
val = "≥ 25 nM"


Query string: Tell me the measured DC50 of Cn1cc(-c2ccc3c(c2)CN(C2CCC(=O)NC2=O)C3=O)nc1-c1ccc(Cl)c(F)c1 (stereo not shown) , please.
Result string: < 25 nM

Query string: Tell me the measured DC50 of Cn1ncc(-c2ccc3c(c2)CN(C2CCC(=O)NC2=O)C3=O)c1-c1ccc(C2CCNCC2)cc1 (stereo not shown) , please.
Result string: ≥ 25 nM

Query string: Tell me the measured DC50 of Cc1cc(C)cc(-c2nc(-c3ccc4c(c3)CN(C3CCC(=O)NC3=O)C4=O)cn2C)c1 (stereo not shown) , please.
Result string: < 25 nM

---

Target: GSPT1 (Homo sapiens, UniProt P15170+Q96SW2)
Sequence (P15170 whole entry): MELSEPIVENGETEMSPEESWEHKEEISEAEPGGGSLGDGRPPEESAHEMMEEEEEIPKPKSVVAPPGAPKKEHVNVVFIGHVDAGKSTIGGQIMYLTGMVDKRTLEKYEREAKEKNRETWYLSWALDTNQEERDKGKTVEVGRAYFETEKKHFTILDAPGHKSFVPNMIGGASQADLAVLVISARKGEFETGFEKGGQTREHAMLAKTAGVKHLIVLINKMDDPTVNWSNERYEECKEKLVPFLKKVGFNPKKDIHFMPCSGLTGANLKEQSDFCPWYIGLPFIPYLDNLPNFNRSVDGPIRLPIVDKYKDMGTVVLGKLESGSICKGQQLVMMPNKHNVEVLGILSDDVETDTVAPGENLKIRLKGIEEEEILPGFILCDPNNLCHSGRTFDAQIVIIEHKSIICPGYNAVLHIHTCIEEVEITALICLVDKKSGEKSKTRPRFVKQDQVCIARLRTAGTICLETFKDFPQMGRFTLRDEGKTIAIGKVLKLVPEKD
Sequence (Q96SW2 whole entry): as the sequence (Q96SW2 whole entry) above
Sequence (Q16531 whole entry partner): as the sequence (Q16531 whole entry partner) above
Assay: HiBiT degradation assay, GSPT1, Procedure B (Molt 4_hGSPT1_HiBIT cells)
Type: cell-based
Parameters: Molt 4_hGSPT1_HiBIT N-terminus tagged cells were generated using CRISPR technology; endogenous in cells; host or cells: Molt 4 cells, CRISPR-edited
Conditions: six hours
readout.type: DC50

The examples below pair each entry with its known result.
[[record]]
compound = "COc1ccc(Cn2cc(-c3nc(-c4ccc5c(c4)CN(C4CCC(=O)NC4=O)C5=O)cn3C)cn2)cc1 (stereo not shown)"
val = "≥ 25 nM"

[[record]]
compound = "Cn1cc(-c2ccc3c(c2)CN(C2CCC(=O)NC2=O)C3=O)nc1-c1nn(C)c2ccccc12 (stereo not shown)"
val = "≥ 25 nM"

[[record]]
compound = "Cn1cc(-c2ccc3c(c2)CN(C2CCC(=O)NC2=O)C3=O)nc1-c1ccc(F)c(Cl)c1 (stereo not shown)"
val = "≥ 25 nM"

[[record]]
compound = "Cn1cc(-c2ccc3c(c2)CN(C2CCC(=O)NC2=O)C3=O)nc1-c1cccc(C#N)c1 (stereo not shown)"
val = "≥ 25 nM"

[[record]]
compound = "Cn1cc(-c2ccc3c(c2)CN(C2CCC(=O)NC2=O)C3=O)nc1-c1ccccc1O (stereo not shown)"
val = "< 25 nM"

[[record]]
compound = "CC(=O)Nc1ccc(-c2nc(-c3ccc4c(c3)CN(C3CCC(=O)NC3=O)C4=O)cn2C)cc1 (stereo not shown)"
val = "≥ 25 nM"


Query string: Tell me the measured DC50 of Cn1cc(-c2ccc3c(c2)CN(C2CCC(=O)NC2=O)C3=O)nc1-c1cccc(Cl)c1 (stereo not shown) , please.
Result string: ≥ 25 nM

Query string: Tell me the measured DC50 of Cc1ccc(-c2nc(-c3ccc4c(c3)CN(C3CCC(=O)NC3=O)C4=O)cn2C)c(Cl)c1 (stereo not shown) , please.
Result string: < 25 nM

Query string: Tell me the measured DC50 of Cn1cc(-c2ccc3c(c2)CN(C2CCC(=O)NC2=O)C3=O)nc1[C@H]1CC[C@H](C(F)(F)F)CC1 (stereo partly shown) , please.
Result string: ≥ 25 nM

Query string: Tell me the measured DC50 of Cn1cc(-c2ccc3c(c2)CN(C2CCC(=O)NC2=O)C3=O)nc1C1(C)CCCCC1 (stereo not shown) , please.
Result string: < 25 nM

Query string: Tell me the measured DC50 of Cn1cc(-c2ccc3c(c2)CN(C2CCC(=O)NC2=O)C3=O)nc1-c1cccc(OC(F)(F)F)c1 (stereo not shown) , please.
Result string: < 25 nM

Query string: Tell me the measured DC50 of COc1ccc(Cl)cc1-c1nc(-c2ccc3c(c2)CN(C2CCC(=O)NC2=O)C3=O)cn1C (stereo not shown) , please.
Result string: ≥ 25 nM

Query string: Tell me the measured DC50 of Cc1ccc(-c2nc(-c3ccc4c(c3)CN(C3CCC(=O)NC3=O)C4=O)cn2C)c(N)c1 (stereo not shown) , please.
Result string: < 25 nM

Query string: Tell me the measured DC50 of O=C1CCC(N2Cc3cc(-c4cc(-c5ccccc5)n(C5CC5)n4)ccc3C2=O)C(=O)N1 (stereo not shown) , please.
Result string: ≥ 25 nM

Query string: Tell me the measured DC50 of Cn1cc(-c2ccc3c(c2)CN(C2CCC(=O)NC2=O)C3=O)nc1-c1cccc(O)c1 (stereo not shown) , please.
Result string: < 25 nM

Query string: Tell me the measured DC50 of Cn1ncc(-c2ccc3c(c2)CN(C2CCC(=O)NC2=O)C3=O)c1C1CCOCC1 (stereo not shown) , please.
Result string: ≥ 25 nM

Query string: Tell me the measured DC50 of Cn1ncc(-c2ccc3c(c2)CN(C2CCC(=O)NC2=O)C3=O)c1C1=CCCCCC1 (stereo not shown) , please.
Result string: ≥ 25 nM

Query string: Tell me the measured DC50 of Cn1cc(-c2ccc3c(c2)CN(C2CCC(=O)NC2=O)C3=O)nc1-c1ccc2c(c1)OCO2 (stereo not shown) , please.
Result string: ≥ 25 nM

Query string: Tell me the measured DC50 of Cn1cc(-c2ccc3c(c2)CN(C2CCC(=O)NC2=O)C3=O)nc1-c1ccc(C#N)cc1 (stereo not shown) , please.
Result string: < 25 nM

---

Target: CK1α (Homo sapiens, UniProt P48729+Q96SW2)
Construct: CSNK1A1-HiBit KI HEK293(LgBit) Cells; host or cells: HEK293(LgBit) knock-in cells
Assay: HiBiT degradation assay, CK1α, Procedure A
Format: cell-based
Settings: six hours
Reported DC50 by item:

[[record]]
molecule = "Cn1ncc(-c2ccc3c(c2)CN(C2CCC(=O)NC2=O)C3=O)c1C1=Cc2ccccc2C1 (centres unmarked) [Example 700]"
val = "< 25 nM"

[[record]]
molecule = "Cn1ncc(-c2ccc3c(c2)CN(C2CCC(=O)NC2=O)C3=O)c1-c1cnn(C2CCC2)c1 (centres unmarked) [Example 475]"
val = "≥ 25 nM"

[[record]]
molecule = "Cn1cc(-c2ccc3c(c2)CN(C2CCC(=O)NC2=O)C3=O)nc1-c1cncc2ccccc12 (centres unmarked) [Example 659]"
val = "< 25 nM"


Query string: Form: Entry = Cn1ncc(-c2ccc3c(c2)CN(C2CCC(=O)NC2=O)C3=O)c1-c1ccc2nccnc2c1 (centres unmarked) [Example 462] | System = CK1α (Homo sapiens, UniProt P48729+Q96SW2) | DC50 = ____
Result string: ≥ 25 nM

Query string: Form: Entry = Cn1ncc(-c2ccc3c(c2)CN(C2CCC(=O)NC2=O)C3=O)c1-c1ccc(=O)n(C)c1 (centres unmarked) [Example 459] | System = CK1α (Homo sapiens, UniProt P48729+Q96SW2) | DC50 = ____
Result string: < 25 nM

Query string: Form: Entry = Cc1ccc(N)cc1-c1nc(-c2ccc3c(c2)CN(C2CCC(=O)NC2=O)C3=O)cn1C (centres unmarked) [Example 674] | System = CK1α (Homo sapiens, UniProt P48729+Q96SW2) | DC50 = ____
Result string: < 25 nM

Query string: Form: Entry = Cn1cnc(-c2ccc3c(c2)CN(C2CCC(=O)NC2=O)C3=O)c1-c1ccc2c(c1)CCCO2 (centres unmarked) [Example 514] | System = CK1α (Homo sapiens, UniProt P48729+Q96SW2) | DC50 = ____
Result string: < 25 nM

Query string: Form: Entry = CC1CCN(c2nc(-c3ccc4c(c3)CN(C3CCC(=O)NC3=O)C4=O)nn2C)CC1 (centres unmarked) [Example 600] | System = CK1α (Homo sapiens, UniProt P48729+Q96SW2) | DC50 = ____
Result string: < 25 nM

---

Target: CK1α (Homo sapiens, UniProt P48729+Q96SW2)
Construct: CSNK1A1-HiBit KI HEK293(LgBit) Cells; host or cells: HEK293(LgBit) knock-in cells
Assay: HiBiT degradation assay, CK1α, Procedure A
Assay type: cell-based
Conditions: six hours incubation
readout.type: DC50

The examples below pair each entry with its known result.
[[record]]
compound = "CN1Cc2cccc(-c3c(-c4ccc5c(c4)CN(C4CCC(=O)NC4=O)C5=O)ncn3C)c2C1 (centres unmarked) [Example 264]"
system = "CK1α (Homo sapiens, UniProt P48729+Q96SW2)"
readout_type = "DC50"
val = "≥ 25 nM"

[[record]]
compound = "Cn1cc(-c2ccccc2)nc1-c1ccc2c(c1)CN(C1CCC(=O)NC1=O)C2=O (centres unmarked) [Example 41]"
system = "CK1α (Homo sapiens, UniProt P48729+Q96SW2)"
readout_type = "DC50"
val = "< 25 nM"

[[record]]
compound = "Cn1ncc(-c2ccc3c(c2)CN(C2CCC(=O)NC2=O)C3=O)c1-c1cccc(N)c1 (centres unmarked) [Example 147]"
system = "CK1α (Homo sapiens, UniProt P48729+Q96SW2)"
readout_type = "DC50"
val = "< 25 nM"


Query string: Tell me the measured DC50 of Cn1ncc(-c2ccc3c(c2)CN(C2CCC(=O)NC2=O)C3=O)c1-c1ccc2ccccc2c1 (centres unmarked) [Example 136] , please.
Result string: < 25 nM
